Tested on: SF-295 CNS
Test: NCI-60 one-dose screen, 48 h (100 = growth as untreated, 0 = no growth, -100 = all killed)
Details: 10 µM
The panel holds about 83,000 compounds, 20% with a hit somewhere; the sample as a whole holds those more often.
recorded_metric: growth (%)
Hi! Could you send only the number? It should be in %, unit omitted.

Study these solved cases before continuing.
molecule: COc1ccc(Oc2nc(NC3CCCC3)nc(Sc3ccc(OC)cc3)n2)cc1
tested_system: SF-295 CNS
unit_symbol: %
growth: 67.4

molecule: Nc1nc(N)c2c(ccc3nccc32)[nH]1
tested_system: SF-295 CNS
unit_symbol: %
growth: 34.4

molecule: Nc1ncn(C2OC(CO)C(O)C2O)c(=O)n1 (centres undefined)
tested_system: SF-295 CNS
unit_symbol: %
growth: 15.4

Problem: Give the value of growth reported for the following: C/C(=N\Nc1nc2ccccc2s1)c1ccncn1
Result: 39.3

----------
System: MALME-3M melanoma
Assay: NCI-60 one-dose screen, 48 h (100 = growth as untreated, 0 = no growth, -100 = all killed)
Settings: 10 µM
Compounds without any hit were thinned out: in the full panel of roughly 83,000, 20% have a hit.
Measured growth accompanies every entry in the list below.
Hi! Could you send only the number? It should be in %, unit omitted.

compound: CN(C)c1ccc(Cc2ccc(N(C)C)cc2Cl)c(Cl)c1
tested_system: MALME-3M melanoma
unit_symbol: %
reported: 91.9

Problem: Given O=C(O)CC(Cl)C(Cl)CC(=O)O (centres undefined) , report its growth on MALME-3M melanoma.
Result: 90.7

Problem: Given COc1cc2cc3c(nc2cc1OC)CCN3Cc1ccc(NC(=O)Nc2cc(C(F)(F)F)cc(C(F)(F)F)c2)cc1 , report its growth on MALME-3M melanoma.
Result: 92.1

Problem: Given Cc1occc1-c1nnc(SCC(=O)c2ccc(NC(=O)CC(C)C)cc2)o1 , report its growth on MALME-3M melanoma.
Result: 89.8

----------
Measured growth accompanies every entry in the list below.
Tested on: HOP-62 NSCLC
Assay: NCI-60 one-dose screen, 48 h (100 = growth as untreated, 0 = no growth, -100 = all killed)
Details: 10 µM
About 83,000 compounds went through this panel and 20% of them were active in at least one assay; those are over-represented in the sample as a whole.
Hi! Could you send only the number? It should be in %, unit omitted.

compound: Cn1c([N+](=O)[O-])cnc1/C=C1\Oc2ccc(Cl)cc2C1=O
tested_system: HOP-62 NSCLC
recorded_metric: growth
reported: -17.2
--
compound: CCN(CC)CCC(CNc1c(C)cnc2cc(Cl)ccc12)c1ccc(Cl)c(Cl)c1 (stereo not drawn)
tested_system: HOP-62 NSCLC
recorded_metric: growth
reported: 68.8
--
compound: COc1ccc(/C(=C2\O[C@@H]([C@H]3COC(C)(C)O3)[C@H]3OC(C)(C)O[C@@H]23)c2cc(OC)c(OC)c(OC)c2)cc1O
tested_system: HOP-62 NSCLC
recorded_metric: growth
reported: 48.5
--
compound: c1ccc(CO[C@H]2CO[C@H]3[C@@H]2OC[C@H]3OCc2ccccc2)cc1
tested_system: HOP-62 NSCLC
recorded_metric: growth
reported: 97.7
--
compound: Cc1cs/c(=N\NC(=O)c2cc(-c3cc4ccccc4o3)nn2-c2ccccc2)n1-c1ccccc1
tested_system: HOP-62 NSCLC
recorded_metric: growth
reported: 97.9

Problem: Give the value of growth reported for the following: COc1cc2cc3c(nc2cc1OC)CCN3Cc1ccc(NC(=O)Nc2cc(C(F)(F)F)cc(C(F)(F)F)c2)cc1
Result: 97.5

Problem: Give the value of growth reported for the following: C=C(NC(=O)C(=C)NC(=O)c1csc(C2=NC3c4csc(n4)C4NC(=O)c5csc(n5)C(C(C)(O)C(C)O)NC(=O)C5CSC(=N5)/C(=C/C)NC(=O)C(C(C)O)NC(=O)c5csc(n5)C3(CC2)NC(=O)C(C)NC(=O)C(=C)NC(=O)C(=C)NC(=O)C(C(C)C)NC2C=Cc3c(C(C)O)cc(nc3C2O)C(=O)OC4C)n1)C(N)=O (stereo not drawn)
Result: 2.24

Problem: Give the value of growth reported for the following: CCCCCCCCN(CCCCCCCC)CCCCCCCCCN1CCCc2cc(OC)ccc21
Result: 85

----------
System: NCI-H226 lung
Experiment: NCI-60 one-dose screen, 48 h
Settings: 10 µM
About 83,000 compounds went through this panel and 20% of them were active in at least one assay; those are over-represented in the sample as a whole. Activity calls are given as the source filed them. The calls were made as follows: active = growth percent below 10; inactive = the rest.
Reply using exactly one outcome from class 1 for active, class 0 for inactive

Recorded results for 10 compounds are shown here.
compound: O=C(Nc1cccc(-n2cc(-c3ccncc3)c(-c3ccc(O)c(Cl)c3)n2)c1)Nc1cccc(C(F)(F)F)c1
label: class 0
//
compound: COc1ccc2c(c1)N(CCO)C1=C(C(=O)OC1)C2c1cc(OC)c(OC)c(OC)c1 (configuration not stated)
label: class 1
//
compound: N#CC1=C(Nc2ccccc2Cl)SC(c2ccccc2O)NC1=O (configuration not stated)
label: class 0
//
compound: O=C(O)c1ccc(Cl)cc1Nc1ccc(F)cc1
label: class 0
//
compound: COc1cc(C(=O)/C=C/c2cc(-c3cc(OC)c(OC)c(OC)c3)n[nH]2)cc(OC)c1OC
label: class 0
//
compound: COc1ccc2c(c1)O/C(=C\c1ccc([N+](=O)[O-])s1)C2=O
label: class 0
//
compound: CCOCC(=O)C(C#N)c1ccc(Cl)c(Cl)c1 (configuration not stated)
label: class 0
//
compound: O=C(CC(C(=O)c1ccccc1)N1CCOCC1)c1ccccc1 (configuration not stated)
label: class 0
//
compound: CCOC(=O)N1C=CC2C=CC1C1C=CC=CC2N1C(=O)OCC (configuration not stated)
label: class 0
//
compound: COc1cccc(-c2cc(-c3cccc(NS(C)(=O)=O)c3)nc(N)c2C#N)c1O
label: class 0

Problem: Kindly provide the recorded test outcome for the following compound: C=C(C(=O)c1ccccc1)C(NC(C)(C)C)c1ccccc1 (configuration not stated)
Result: class 0

Problem: Kindly provide the recorded test outcome for the following compound: CCC(=O)N1C/C(=C/c2ccc(OC)cc2)C(=O)/C(=C/c2ccc(OC)cc2)C1
Result: class 0

----------
System: NCI-H23 lung
Assay: NCI-60 one-dose screen, 48 h (100 = growth as untreated, 0 = no growth, -100 = all killed)
Conditions: 10 µM
About 83,000 compounds went through this panel and 20% of them were active in at least one assay; those are over-represented in the sample as a whole.
Measured growth accompanies every entry in the list below.
Hi! Could you send only the number? It should be in %, unit omitted.

Study these solved cases before continuing.
molecule: COc1ccc(NC2=NC(C)(CO)CS2)cc1 (stereo not given)
recorded_metric: growth
reported: 97.1

molecule: Nc1ccc2c(c1)C1(CCC2)NC(=O)NC1=O (stereo not given)
recorded_metric: growth
reported: 103

Problem: Give the value of growth reported for the following: CCCCCCCCCCCCCCCCCCOCC(COCCOCC[N+]1(CCCCCC(=O)[O-])CCCC1)Oc1ncccn1 (stereo not given)
Result: 46.5

Problem: Give the value of growth reported for the following: C#Cc1ccc(-n2c(/C=C/c3ccc(O)c(OC)c3)nc3ncccc3c2=O)cc1
Result: 102

Problem: Give the value of growth reported for the following: COc1cc(-c2nn3c(/C=C4/C(=O)Nc5ccccc54)c(-c4ccc(C)cc4)nc3s2)cc(OC)c1OC
Result: 51.2

----------
System: OVCAR-3 ovarian
Assay: NCI-60 one-dose screen, 48 h
Conditions: 10 µM
The panel holds about 83,000 compounds, 20% with a hit somewhere; the sample as a whole holds those more often. The source made the active and inactive calls. How the source made its calls: active means growth percent below 10; inactive means the rest.
Reply using exactly one outcome from active, inactive

molecule: O=C1Nc2ccc(Cl)cc2/C1=C\c1c(-c2ccc(Cl)cc2)nc2sc(C3CC3)nn12
label: inactive
//
molecule: COc1cc(/C=C2\CCCC3=C2N=C2SC=NN2C3c2cc(OC)c(OC)c(OC)c2)cc(OC)c1OC (stereo not drawn)
label: inactive
//
molecule: CC(=O)O[C@]1(C)CC[C@H]2[C@H](CNCCc3ccc(Cl)cc3)C(=O)O[C@@H]2C2=C(C)C(=O)C[C@H]21
label: inactive
//
molecule: CCCC1(CC(=O)O)OCCc2c1[nH]c1ccccc21 (stereo not drawn)
label: inactive
//
molecule: CSC1=NCCCC1
label: inactive
//
molecule: COc1ccc(/C=C2/CN(C(=O)c3ccccc3F)C/C(=C\c3ccc(OC)cc3)C2=O)cc1
label: inactive
//
molecule: CCOC(=O)C(CSC(c1ccccc1)(c1ccccc1)c1ccccc1)NC(=O)C(CSC(c1ccccc1)(c1ccccc1)c1ccccc1)NC(c1ccccc1)(c1ccccc1)c1ccccc1 (stereo not drawn)
label: inactive
//
molecule: CCOC(=O)N1C=CC2C=CC1C1C=CC=CC2N1C(=O)OCC (stereo not drawn)
label: inactive
//
molecule: O=C(/C=C/c1cc2ccccc2[nH]c1=O)c1ccc2c(c1)OCO2
label: inactive
//
molecule: CCCCOC(=O)Oc1ccc(C(=O)Oc2ccc(OCC)cc2)cc1
label: inactive

Problem: Kindly provide the recorded test outcome for the following molecule: CN1CC[C@@H](c2c(O)cc(O)c3c(=O)cc(-c4ccccc4Cl)oc23)[C@@H](O)C1
Result: inactive

Problem: Kindly provide the recorded test outcome for the following molecule: CN1CCC2(CC1)NC(=O)c1c(c3ccc(Cl)c(Cl)c3n1C)C2C#N (stereo not drawn)
Result: inactive

Problem: Kindly provide the recorded test outcome for the following molecule: Oc1[nH]c2cc(Cl)ccc2c1/C=c1/ccc2c(c1)N=C(c1cc(F)cc(F)c1)N=2
Result: active
